Hello, the source for this data is patent EP2366394A1, in case you need it.

Measured IC50, listed per entry.
# assayed-target: DP8/9
# experimental-details: Inhibition of the enzymatic activity of DPIV related enzymes DP8/9
# conditions: > 25: No inhibition
parameter-measured: IC50 (µM)

{"columns": ["molecule", "unit-name", "comparative-sign", "quantitative-readout"],
 "data": [
  ["NC(CNC(=O)c1cccc(NC(=O)C(O)C(N)Cc2ccc(-c3cccnc3)cc2)c1)Cc1cc(F)ccc1F (stereo not shown) [No. 15]", "µM", "=", 8.5],
  ["CC(C)C(Oc1ccc(CNC(=O)C2CCCN2C(=O)CC(N)Cc2cc(F)ccc2F)cc1)C(=O)O (stereo not shown) [No. 2]", "µM", ">", 25],
  ["CC(C)(CNC(=O)CC(Cc1cc(F)ccc1F)NC(=O)OC(C)(C)C)CNC(=O)C(O)C(Cc1ccccc1)NC(=O)OC(C)(C)C (stereo not shown) [No. 6]", "µM", ">", 25],
  ["NC(CCCCNC(=O)c1ccc(S)nc1)C(=O)N1CCSC1 (stereo not shown) [No. 8]", "µM", "=", 0.001],
  ["CCCCCC(=O)NC(CC(=O)NCC(C)(C)CNC(=O)C(O)C(Cc1ccccc1)NC(=O)CCCCC)Cc1cc(F)ccc1F (stereo not shown) [No. 7]", "µM", ">", 25],
  ["CC[C@H](C)[C@H](N)C(=O)N1CCSC1 [No. 4]", "µM", "=", 1.73],
  ["NC(CC(=O)N1CCn2c(nnc2C(F)(F)F)C1)Cc1cc(F)c(F)cc1F (stereo not shown) [No. 10]", "µM", "=", 15.3]
]}

* * *

Measured pIC50, listed per entry.
# assayed-target: purified, recombinant human DPIV (Homo sapiens)
# Sequence (P27487 whole entry): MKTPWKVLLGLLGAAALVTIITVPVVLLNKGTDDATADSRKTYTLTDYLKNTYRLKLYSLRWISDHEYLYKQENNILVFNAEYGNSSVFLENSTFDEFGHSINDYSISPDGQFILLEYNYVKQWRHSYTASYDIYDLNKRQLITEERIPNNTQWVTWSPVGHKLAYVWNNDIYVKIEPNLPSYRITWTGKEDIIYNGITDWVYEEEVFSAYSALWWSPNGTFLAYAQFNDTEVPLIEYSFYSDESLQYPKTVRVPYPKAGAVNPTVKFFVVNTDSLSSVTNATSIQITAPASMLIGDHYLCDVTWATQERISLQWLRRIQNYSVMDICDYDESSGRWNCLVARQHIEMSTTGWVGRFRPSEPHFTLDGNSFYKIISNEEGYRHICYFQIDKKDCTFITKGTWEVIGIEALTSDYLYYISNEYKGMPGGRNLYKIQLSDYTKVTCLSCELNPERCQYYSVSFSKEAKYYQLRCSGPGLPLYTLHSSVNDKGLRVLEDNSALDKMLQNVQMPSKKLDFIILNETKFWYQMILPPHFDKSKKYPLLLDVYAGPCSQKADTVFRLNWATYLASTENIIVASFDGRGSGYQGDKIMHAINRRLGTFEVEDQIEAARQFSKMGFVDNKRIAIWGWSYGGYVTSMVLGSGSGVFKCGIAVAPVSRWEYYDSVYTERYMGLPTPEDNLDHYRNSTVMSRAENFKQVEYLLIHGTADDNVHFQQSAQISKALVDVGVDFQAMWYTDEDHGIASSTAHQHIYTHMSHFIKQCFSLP
# experimental-details: Inhibition of the enzymatic activity of DPIV, fluorogenic substrate (Ala-Pro)2-R110
# conditions: substrate 0.5 µM, pH 7.5; highest test concentration 25 µM; > 25: No inhibition
# Experimental: The assay was performed in 0.05 M TRIS/HCl buffer, pH 7.5, supplemented with 0.05 % Triton® (v/v), 0.05 % BSA (w/v), 2 mM MgCl2. The enzymatic activity of DPIV was assessed by the hydrolysis of the fluorogenic substrate Bis-(L-Alanyl-Prolyl)-Rhodamin-110 (Bis-Trifluoroacetate; abbreviation: (Ala-Pro)2-R110). […] The assay was performed in white microtitre plates for fluorescence measurements. […] For the calculation of IC50 values, at least 16 log2 dilutions of each test item were analyzed. […]
pIC50: −log10 of the molar value.
parameter-measured: pIC50

{"columns": ["compound", "parameter-measured", "comparative-sign", "quantitative-readout"],
 "data": [
  ["Cc1[nH]c2ccccc2c1C(c1cc(Cl)ccc1O)N1CCOCC1 (centres unmarked) [No. 16]", "pIC50", "<", 4.60],
  ["CC(C)(CNC(=O)CC(Cc1cc(F)ccc1F)NC(=O)OC(C)(C)C)CNC(=O)C(O)C(Cc1ccccc1)NC(=O)OC(C)(C)C (centres unmarked) [No. 6]", "pIC50", "<", 4.60],
  ["CC(C)C(Oc1ccc(CNC(=O)C2CCCN2C(=O)CC(N)Cc2cc(F)ccc2F)cc1)C(=O)O (centres unmarked) [No. 2]", "pIC50", "=", 6.32],
  ["CCCCCC(=O)NC(CC(=O)NCC(C)(C)CNC(=O)C(O)C(Cc1ccccc1)NC(=O)CCCCC)Cc1cc(F)ccc1F (centres unmarked) [No. 7]", "pIC50", "<", 4.60],
  ["NC(CCCCNC(=O)c1ccc(S)nc1)C(=O)N1CCSC1 (centres unmarked) [No. 8]", "pIC50", "=", 7.05]
]}
